The measurements presented in this section are drawn from patent US20220112295A1.

System Tested: T1, native cynomolgus monkey CD30L on activated T cells (cynomolgus monkey, UniProt A0A7N9CVX7 1-234)
T1 construct: whole, on cells; also called cynomologous CD30L
T1 sequence: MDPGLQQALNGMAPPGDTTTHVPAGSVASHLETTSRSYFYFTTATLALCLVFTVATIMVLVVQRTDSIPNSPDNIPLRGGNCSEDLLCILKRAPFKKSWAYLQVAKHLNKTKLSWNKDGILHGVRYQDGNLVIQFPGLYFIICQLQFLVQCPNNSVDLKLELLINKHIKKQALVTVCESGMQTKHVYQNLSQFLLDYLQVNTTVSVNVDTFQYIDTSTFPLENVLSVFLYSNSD
Assay Method Text: FACS, antibody at 50 ug/mL, inhibition of huCD30.Fc-His binding to activated cynomolgus T cells

| Binder | % inhibition |
| --- | --- |
| Antibody B (antibody, V domains shown, also called mAb B) VH: QVQLQESGPGLVKPSETLSLTCTVSGGSISSYYWTWIRQPAGKGLEWIGRIYTSGITNYNPSLKSRVTMSVDTSKNQFSLKLSSVTAADTAVYYCARERVVGASRYYYYGVDVWGQGTTVTVSS VL: QSALTQPASVSGSPGQSITISCTGTSSDVGLYNYVSWYQQHPDKAPKLMIFEVNNRPSGVSNRFSGSNSGNTASLTISGLQAEDEADYYCSSYTSSSTWVFGGGTKLTVL | 88% |
| Antibody F (antibody, V domains shown, also called mAb F) VH: QVQLQESGPGLVKPSETLSLTCTVSGGSISSYYWSWIRQPAGKGLEWIGRIFASGSTNYNPSLRSRVTMSRDTSKNQFSLKLSSVTAADTAVYYCAKERVGVQDYYHYSGMDVWGQGTTVTVSS VL: QSALTQPASVSGSPGQSITISCTGTSSDVGLYNYVSWYQQQPGKAPKLMIYEVSKRPSGVSNRFSGSTSGNTASLTISGLQADDEADYSCSSYTSSSTWVFGGGTKLTVL | 97% |
| Antibody A (antibody, V domains shown, Human antibody (XenoMouse); also called mAb A; anti-hCD30L A) VH: QVQLQESGPGLVKPSETLSLTCTVSGGSISSYIWSWIRQPAGKGLEWIGRIYASGNTNYNPSLKSRVTMSVDTSKNQFSLKLSSMTAADTAVYYCARDYRVAGTYYYYYGLDVWGQGTTVTVSS VL: QSALTQPASVSGSPGQSITISCTGTSSDVGVYDYVSWYQQHPGKAPKLMIYEVSNRPSGVSNRFSGSKSGNTASLTISGLQTEDEADYYCSSYTSRSTWVFGGGTKLTVL | 77% |
| Antibody C (antibody, V domains shown, also called mAb C) VH: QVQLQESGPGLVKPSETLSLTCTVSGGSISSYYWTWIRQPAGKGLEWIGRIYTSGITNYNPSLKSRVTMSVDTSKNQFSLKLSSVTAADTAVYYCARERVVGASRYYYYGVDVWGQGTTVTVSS VL: QSALTQPASVSGSPGQSITISCTGTSSDIGLYDYVSWYQQHPDRAPKLIIFEVNNRPSGVSYRFSGSNSGNTASLTISGLQAEDEADYYCSSYTSSSTWVFGGGTKLTVL | 83% |
